Biological target: B-Raf kinase (Homo sapiens, UniProt P15056)
Sequence (P15056 whole entry): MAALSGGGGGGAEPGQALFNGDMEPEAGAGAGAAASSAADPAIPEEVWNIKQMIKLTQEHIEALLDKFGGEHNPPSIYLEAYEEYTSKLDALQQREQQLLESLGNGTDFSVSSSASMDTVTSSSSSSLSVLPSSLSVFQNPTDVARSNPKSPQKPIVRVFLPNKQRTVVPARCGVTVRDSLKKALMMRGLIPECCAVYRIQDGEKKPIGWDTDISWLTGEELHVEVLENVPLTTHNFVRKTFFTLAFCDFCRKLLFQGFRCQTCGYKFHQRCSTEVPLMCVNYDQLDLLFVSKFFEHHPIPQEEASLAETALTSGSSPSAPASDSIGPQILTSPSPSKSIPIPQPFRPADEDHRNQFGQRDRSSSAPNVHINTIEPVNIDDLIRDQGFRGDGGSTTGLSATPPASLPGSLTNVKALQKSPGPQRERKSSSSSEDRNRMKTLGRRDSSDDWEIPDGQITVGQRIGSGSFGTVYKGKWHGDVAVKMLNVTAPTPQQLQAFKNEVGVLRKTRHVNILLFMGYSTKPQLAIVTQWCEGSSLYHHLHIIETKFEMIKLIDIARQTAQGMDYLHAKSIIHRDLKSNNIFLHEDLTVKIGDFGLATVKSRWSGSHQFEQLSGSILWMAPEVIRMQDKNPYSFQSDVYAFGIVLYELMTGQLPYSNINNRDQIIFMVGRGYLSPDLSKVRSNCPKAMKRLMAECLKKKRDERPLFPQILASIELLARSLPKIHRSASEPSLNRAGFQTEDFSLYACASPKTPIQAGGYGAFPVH
Experiment: B-Raf kinase assay ([33P] incorporation into MEK1 K97R)
Details: recombinant B-Raf, 8 μM ATP, 30 min, 30° C.; read-out: IC50 ranking against B-Raf kinase
pIC50: −log10 of the molar value.
Catalogue of pIC50 values

• CCOc1cnc2ccc(Nc3cc(NS(C)(=O)=O)ccc3F)c(C#N)c2n1 = 5.00 to 6.00
• CCCS(=O)(=O)Nc1cccc(Nc2ccc3ncc(OC)nc3c2C#N)c1C#N = > 6.52
• CCOc1cnc2ccc(Nc3cc(NS(=O)(=O)c4ccccc4)ccc3F)c(C#N)c2n1 = > 6.52
• CCOc1cnc2ccc(Nc3c(F)ccc(NS(=O)(=O)CCCF)c3F)c(C#N)c2n1 = > 6.52
• CCCS(=O)(=O)Nc1ccc(F)c(Nc2ccc3ncc(N4CCOCC4)nc3c2C#N)c1F = > 6.52

# input pIC50 for `CCCS(=O)(=O)Nc1ccc(F)c(Nc2ccc3ncc(OCCN4CCOCC4)nc3c2[N+](=O)[O-])c1F` ?
# output > 6.52

* * *

System: B-Raf^V600E mutant A375 melanoma cell
Assay: Cell proliferation assay (CELLTITER 96), A375
Assay type: cell-based
Details: Homo sapiens, A-375; A375, 72 hours; read-out: Cytotoxicity (IC50 Ranking) A375 (B-Raf^V600E)
measuredProperty: IC50

• CCCS(=O)(=O)Nc1ccc(F)c(Nc2ccc3ncc(OCC)nc3c2C#N)c1 = < 300 nM
• CCCS(=O)(=O)N(CC)c1ccc(F)c(Nc2ccc3ncc(OC)nc3c2C#N)c1F = < 300 nM

# input Param readout = IC50; param system = B-Raf^V600E mutant A375 melanoma cell; param query = `CS(=O)(=O)Nc1ccc(F)c(Nc2ccc3ncc(N4CCOCC4)nc3c2C#N)c1` ; response: value
# output 1000 to 10000 nM

# input Param readout = IC50; param system = B-Raf^V600E mutant A375 melanoma cell; param query = `CCCS(=O)(=O)Nc1ccc(F)c(Nc2ccc3ncc(N4CCOCC4)nc3c2C#N)c1F` ; response: value
# output < 300 nM

# input Param readout = IC50; param system = B-Raf^V600E mutant A375 melanoma cell; param query = `CCCS(=O)(=O)N(C)c1ccc(F)c(Nc2ccc3ncc(OC)nc3c2C#N)c1F` ; response: value
# output < 300 nM

* * *

Tested on: B-Raf^V600E mutant A375 melanoma cell
Assay: Cell proliferation assay (CELLTITER 96), A375
Assay type: cell-based
Conditions: Homo sapiens, A-375; A375, 72 hours; read-out: Cytotoxicity (IC50 Ranking) A375 (B-Raf^V600E)
pIC50: −log10 of the molar value.
measuredProperty: pIC50

Study these solved cases before continuing.
- COc1cnc2ccc(Nc3c(F)ccc(NS(C)(=O)=O)c3F)c([N+](=O)[O-])c2n1 [compound 14]: 5.00 to 6.00
- CCCS(=O)(=O)Nc1ccc(F)c(Nc2ccc3ncc(Nc4ccccc4F)nc3c2)c1F [compound 11]: 6.00 to 6.52
- CCCS(=O)(=O)Nc1ccc(F)c(Nc2ccc3ncc(NC(=O)C4CC4)nc3c2)c1F [compound 8]: 5.00 to 6.00
- CCCS(=O)(=O)Nc1ccc(F)c(Nc2ccc3ncc(OC)nc3c2[N+](=O)[O-])c1F [compound 4]: > 6.52
- CCCS(=O)(=O)Nc1ccc(F)c(Nc2ccc3ncc(OC)nc3c2C(=O)OC)c1F [compound 31]: 6.00 to 6.52
- CCCS(=O)(=O)Nc1ccc(F)c(Nc2ccc3ncc(N(C)C)nc3c2C#N)c1F [compound 18]: > 6.52

# input pIC50 for CCCS(=O)(=O)Nc1ccc(F)c(Nc2ccc3ncc(N(C)C)nc3c2C#N)c1 [compound 28] ?
# output 6.00 to 6.52

# input pIC50 for CCCS(=O)(=O)Nc1cccc(Nc2ccc3ncc(OC)nc3c2C#N)c1C [compound 44] ?
# output 6.00 to 6.52

Reference source: patent US10745360B2
